Attribution: patent US20250163167A1

# system under test: T1, hIL10Rb-his (Sino Biological, Catalog#10945) (human, UniProt Q08334 20-220)
# T1 construct: Bought; also called Sino Biological cat#10945-H08H; not shown: C-terminal poly-His tag
# T1 sequence: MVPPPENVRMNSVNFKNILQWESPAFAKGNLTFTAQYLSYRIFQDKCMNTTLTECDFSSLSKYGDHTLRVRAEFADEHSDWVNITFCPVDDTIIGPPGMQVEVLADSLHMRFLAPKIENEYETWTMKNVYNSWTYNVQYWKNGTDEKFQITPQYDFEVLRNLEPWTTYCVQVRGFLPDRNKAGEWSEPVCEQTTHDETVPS
# assay summary: SPR Biacore T200; mono-Fc VHH captured on Protein A chip, hIL10Rb-his analyte; 1:1 Langmuir fit
For each of the binders below, state its pKd.
Answers are plain numbers, as −log10 of the molar value.

binder	value reported
hIL-10Rb_VHH1 Mono-Fc (Fc fusion, Mono-Fc VHH captured on Protein A; not shown: mono-Fc part) QVQLQESGGGSVQAGGSLRLSCAASGYTYSSGCMGWFRQAPGKEREAVAAINSDGSTSYADSVKGRFTISKDNAKNTLYLQMNSLKPEDTAMYYCAAEPYCSGGYPRWSVAEFGYWGQGTQVTVSS	8.08
hIL-10Rb_VHH12 Mono-Fc (Fc fusion, Mono-Fc VHH captured on Protein A; not shown: mono-Fc part) QVQLQESGGGSVQAGGSLRLSCAASGYTYSSYCMGWFRQAPGKEREGVAHIDSDGSTSYADSVKGRFTISKDNAKNTLYLQMNSLKPEDTAMYYCAADPIPGPGYCDGGPNKYWGQGTQVTVSS	7.89
hIL-10Rb_VHH27 Mono-Fc (Fc fusion, Mono-Fc VHH captured on Protein A; not shown: mono-Fc part) QVQLQESGGGSVQTGGSLRLSCAASGYTYLRGCMGWFRQAPGKEREGVAVMDVVGDRRSYIDSVKGRFTISRDNAANSVYLQMDNLKPEDTAMYYCTAGPNCVGWRSGLDYWGQGTQVTVSS	8.62

For the next question, use this binder.
Inquiry: Record request: pKd value, item hIL-10Rb_VHH3 Mono-Fc (Fc fusion, Mono-Fc VHH captured on Protein A; not shown: mono-Fc part) QVQLQESGGGSVQAGGSLRLSCAASRYTYNSYCMGWFRQAPGKEREGVATIDSDGMTRYADSVKGRFTISKDNAKNTLYLQMNSLKPEDTAMYYCAADADCTIAAMTTNPLGQGTQVTVSS
Reply text: 6.64
